Catalogue of IC50 readings, one per entry.
molecular target: protein kinase C zeta (Homo sapiens, UniProt Q05513); assay: PKC Enzyme assay, zeta isozyme; type: biochemical; conditions: PKC zeta; 30 μM ATP, 30° C., 10 minutes; read-out: IC50 ζ
Sequence (Q05513 whole entry): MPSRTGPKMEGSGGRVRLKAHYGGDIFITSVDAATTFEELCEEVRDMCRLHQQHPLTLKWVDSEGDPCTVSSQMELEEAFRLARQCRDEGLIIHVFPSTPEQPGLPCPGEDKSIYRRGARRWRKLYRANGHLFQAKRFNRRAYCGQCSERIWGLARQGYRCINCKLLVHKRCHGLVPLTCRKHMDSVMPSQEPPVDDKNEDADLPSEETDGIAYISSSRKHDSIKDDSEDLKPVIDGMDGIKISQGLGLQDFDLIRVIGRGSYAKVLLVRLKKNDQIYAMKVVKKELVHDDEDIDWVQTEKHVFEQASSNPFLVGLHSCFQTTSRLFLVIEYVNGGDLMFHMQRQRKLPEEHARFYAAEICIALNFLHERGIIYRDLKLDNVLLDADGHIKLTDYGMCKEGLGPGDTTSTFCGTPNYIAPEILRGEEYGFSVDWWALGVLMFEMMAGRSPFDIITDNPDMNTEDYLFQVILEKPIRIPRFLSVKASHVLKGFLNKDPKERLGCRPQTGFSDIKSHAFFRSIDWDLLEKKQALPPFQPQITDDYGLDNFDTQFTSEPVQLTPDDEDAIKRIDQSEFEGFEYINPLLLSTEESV

| compound | studySystem | IC50 / µM |
| --- | --- | --- |
| O=C1NC(=O)C(c2cn(Cc3ccccc3)c3ccccc23)=C1c1c[nH]c2ccccc12 [Example 14] | protein kinase C zeta (Homo sapiens, UniProt Q05513) | 34 |
| Cn1cc(C2=C(c3cn(C4CCN(Cc5ccccn5)CC4)c4ccccc34)C(=O)NC2=O)c2ccccc21 [Example 49] | protein kinase C zeta (Homo sapiens, UniProt Q05513) | 8 |
| Cn1cc(C2=C(c3c4n(c5ccccc35)CCC(CO)C4)C(=O)NC2=O)c2ccccc21 (stereo not drawn) [Example 9] | protein kinase C zeta (Homo sapiens, UniProt Q05513) | 9.26 |

----------
target: protein kinase C zeta (Homo sapiens, UniProt Q05513); assay: PKC Enzyme assay, zeta isozyme; assay type: biochemical; settings: PKC zeta; 30 μM ATP, 30° C., 10 minutes; read-out: IC50 ζ
Dear colleague, classification is by IC50, with ranges listed here: low = under 30 µM, moderate = from 30 µM up to 40 µM, high = 40 µM and over

| compound | studySystem | labelClass |
| --- | --- | --- |
| CC(C)(C)OC(=O)N1CCC(n2cc(C3=C(c4c[nH]c5ccccc45)C(=O)NC3=O)c3ccccc32)CC1 [Example 7] | protein kinase C zeta (Homo sapiens, UniProt Q05513) | moderate |
| CC(=O)NCC1OC(OCCCCn2cc(C3=C(c4cn(C)c5ccccc45)C(=O)N(C(C)=O)C3=O)c3ccccc32)CC1OC(C)=O (centres unmarked) [Example 70] | protein kinase C zeta (Homo sapiens, UniProt Q05513) | moderate |
| O=C1NC(=O)C(c2cn(C3CCNCC3)c3ccccc23)=C1c1c[nH]c2ccccc12 [Example 50] | protein kinase C zeta (Homo sapiens, UniProt Q05513) | low |
| Cn1cc(C2=C(c3cn(CCOC4C[C@H](N=[N+]=[N-])[C@@H](CO)O4)c4ccccc34)C(=O)NC2=O)c2ccccc21 (some centres unmarked) [Example 61] | protein kinase C zeta (Homo sapiens, UniProt Q05513) | low |
| Cn1cc(C2=C(c3cn(C4CCN(C(=NC(=O)OC(C)(C)C)NC(=O)OC(C)(C)C)CC4)c4ccccc34)C(=O)NC2=O)c2ccccc21 [Example 5] | protein kinase C zeta (Homo sapiens, UniProt Q05513) | high |
| Cn1cc(C2=C(c3cn(CCOC4OC(CN)C(O)C(O)C4O)c4ccccc34)C(=O)NC2=O)c2ccccc21 (centres unmarked) [Example 66] | protein kinase C zeta (Homo sapiens, UniProt Q05513) | moderate |
| Cn1cc(C2=C(c3cn(C4CCOC4)c4ccccc34)C(=O)NC2=O)c2ccccc21 (centres unmarked) [Example 64] | protein kinase C zeta (Homo sapiens, UniProt Q05513) | high |
| Cn1cc(C2=C(c3cn(CCO[C@@H]4O[C@H](CN=[N+]=[N-])[C@H](O)[C@H](O)[C@H]4O)c4ccccc34)C(=O)NC2=O)c2ccccc21 [Example 57] | protein kinase C zeta (Homo sapiens, UniProt Q05513) | high |
| CCOC(=O)CN1CCC(n2cc(C3=C(c4cn(C)c5ccccc45)C(=O)NC3=O)c3ccccc32)CC1 [Example 38] | protein kinase C zeta (Homo sapiens, UniProt Q05513) | high |
| Cn1cc(C2=C(c3c4n(c5ccccc35)CCC(CO)(CO)C4)C(=O)NC2=O)c2ccccc21 [Example 2] | protein kinase C zeta (Homo sapiens, UniProt Q05513) | moderate |
| Cn1cc(C2=C(c3cn(CCOC4O[C@H](CO)[C@@H](O)[C@@H](N=[N+]=[N-])[C@H]4O)c4ccccc34)C(=O)NC2=O)c2ccccc21 (some centres unmarked) [Example 59] | protein kinase C zeta (Homo sapiens, UniProt Q05513) | high |
| Cn1cc(C2=C(c3cn(C4CN(C(c5ccccc5)c5ccccc5)C4)c4ccccc34)C(=O)NC2=O)c2ccccc21 [Example 72] | protein kinase C zeta (Homo sapiens, UniProt Q05513) | high |

----------
Biological target: protein kinase C zeta (Homo sapiens)
Assay: PKC Enzyme assay, zeta isozyme
Assay type: biochemical
Protocol: PKC enzymes=alpha, beta I, beta II, gamma, delta, epsilon, eta and zeta. Assay components in a total volume of 250 μL are the following: […]
pIC50: −log10 of the molar value.
reportedMetric: pIC50

| smilesStr | studySystem | reportedMetric | signQualifier | obsValue |
| --- | --- | --- | --- | --- |
| Cn1cc(C2=C(c3cn(C4CCN(Cc5ccccc5)CC4)c4ccccc34)C(=O)NC2=O)c2ccccc21 | protein kinase C zeta (Homo sapiens) | pIC50 | = | 4.28 |
| CN(C)CCCn1cc(C2=C(c3c[nH]c4ccccc34)C(=O)NC2=O)c2ccccc21 | protein kinase C zeta (Homo sapiens) | pIC50 | = | 4.64 |
| Cn1cc(C2=C(c3cn(C4CCN(CC(F)(F)C(F)(F)C(F)(F)F)CC4)c4ccccc34)C(=O)NC2=O)c2ccccc21 | protein kinase C zeta (Homo sapiens) | pIC50 | < | 4.00 |

----------
target: protein kinase C zeta (Homo sapiens, UniProt Q05513); test: PKC Enzyme assay, zeta isozyme; type: biochemical; settings: PKC zeta; 30 μM ATP, 30° C., 10 minutes; read-out: IC50 ζ
The label Condition met is reserved for IC50 strictly under 20 µM; Condition not met covers values equal to or above it.

| compound | labelClass |
| --- | --- |
| CN1CCC(n2cc(C3=C(c4c[nH]c5ccccc45)C(=O)NC3=O)c3ccccc32)CC1 | Condition met |
| Cn1cc(C2=C(c3cn(CCCCOC4CC(O)C(CN)O4)c4ccccc34)C(=O)NC2=O)c2ccccc21 (stereo not drawn) [Example 54] | Condition not met |
| Cn1cc(C2=C(c3cn(C4CCN(C(=N)N)CC4)c4ccccc34)C(=O)NC2=O)c2ccccc21 | Condition met |
| Cn1cc(C2=C(c3cn(CCCCOC4C[C@H](O)[C@@H](CO)O4)c4ccccc34)C(=O)NC2=O)c2ccccc21 (stereo partly drawn) | Condition not met |
| Cn1cc(C2=C(c3cn(C4CCNCC4)c4ccccc34)C(=O)NC2=O)c2ccccc21 | Condition met |
| CN(C)CCCN1CCC(n2cc(C3=C(c4cn(C)c5ccccc45)C(=O)NC3=O)c3ccccc32)CC1 | Condition met |
| CN(C)CCCn1cc(C2=C(c3cn(C)c4ccccc34)C(=O)NC2=O)c2ccccc21 | Condition not met |
| O=C1NC(=O)C(c2cn(CCCO)c3ccccc23)=C1c1c[nH]c2ccccc12 | Condition met |
| Cn1cc(C2=C(c3cn(CCOC4O[C@H](CO)[C@@H](O)[C@@H](N)[C@H]4O)c4ccccc34)C(=O)NC2=O)c2ccccc21 (stereo partly drawn) | Condition not met |
| Cn1cc(C2=C(c3cn(CCO[C@@H]4C[C@H](O)[C@@H](CN=[N+]=[N-])O4)c4ccccc34)C(=O)NC2=O)c2ccccc21 | Condition not met |
| Cn1cc(C2=C(c3cn(C4CCN(c5ccccn5)CC4)c4ccccc34)C(=O)NC2=O)c2ccccc21 | Condition not met |
| CC(=O)NC[C@H]1O[C@H](OCCn2cc(C3=C(c4cn(C)c5ccccc45)C(=O)NC3=O)c3ccccc32)C[C@@H]1O | Condition not met |
| Cn1cc(C2=C(c3cn(CCCCOC4CC(O)C(CN)O4)c4ccccc34)C(=O)NC2=O)c2ccccc21 (stereo not drawn) [Example 53] | Condition not met |
| Cn1cc(C2=C(c3cn(CCO[C@H]4O[C@H](CN)[C@H](O)[C@H](O)[C@H]4O)c4ccccc34)C(=O)NC2=O)c2ccccc21 | Condition not met |
| CN1CCC(n2cc(C3=C(c4cn(C)c5ccccc45)C(=O)NC3=O)c3ccccc32)CC1 | Condition met |

----------
molecular target: protein kinase C beta-1 (Homo sapiens, UniProt P05771); assay: PKC Enzyme assay, beta I isozyme; format: biochemical; conditions: PKC beta-1; 30 μM ATP, 30° C., 10 minutes; read-out: IC50 β1
Sequence (P05771 whole entry): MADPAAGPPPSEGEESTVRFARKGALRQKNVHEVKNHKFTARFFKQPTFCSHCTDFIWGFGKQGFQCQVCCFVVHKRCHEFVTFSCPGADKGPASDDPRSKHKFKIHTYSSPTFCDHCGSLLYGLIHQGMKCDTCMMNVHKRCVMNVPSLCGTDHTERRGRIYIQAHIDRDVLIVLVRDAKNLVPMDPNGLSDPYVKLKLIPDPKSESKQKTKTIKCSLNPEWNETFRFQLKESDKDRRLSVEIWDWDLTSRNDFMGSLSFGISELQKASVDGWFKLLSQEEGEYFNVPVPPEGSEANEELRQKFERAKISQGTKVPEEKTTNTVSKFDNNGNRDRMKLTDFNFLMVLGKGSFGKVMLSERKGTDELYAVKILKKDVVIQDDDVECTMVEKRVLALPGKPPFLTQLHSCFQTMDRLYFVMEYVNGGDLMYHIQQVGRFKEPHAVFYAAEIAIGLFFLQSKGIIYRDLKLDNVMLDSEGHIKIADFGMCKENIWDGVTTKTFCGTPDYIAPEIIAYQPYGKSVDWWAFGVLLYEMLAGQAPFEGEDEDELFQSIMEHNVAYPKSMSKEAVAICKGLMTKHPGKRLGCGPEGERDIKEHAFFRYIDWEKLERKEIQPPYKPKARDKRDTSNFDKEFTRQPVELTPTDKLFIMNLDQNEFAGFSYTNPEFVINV

| compound | unitInfo | IC50 |
| --- | --- | --- |
| Cn1cc(C2=C(c3cn(CCCCOC4CC(O)C(CN)O4)c4ccccc34)C(=O)NC2=O)c2ccccc21 (stereo not shown) [Example 54] | nM | 1100 |
| Cn1cc(C2=C(c3cn(CCOC4OC(CN)C(O)C(O)C4O)c4ccccc34)C(=O)NC2=O)c2ccccc21 (stereo not shown) | nM | 240 |
| Cn1cc(C2=C(c3cn(CCOC4C[C@H](N)[C@@H](CO)O4)c4ccccc34)C(=O)NC2=O)c2ccccc21 (stereo partly shown) | nM | 130 |
| Cn1cc(C2=C(c3c[nH]c4ccccc34)C(=O)NC2=O)c2ccccc21 | nM | 81 |
| Cn1cc(C2=C(c3cn(CCO[C@@H]4C[C@H](O)[C@@H](CN=[N+]=[N-])O4)c4ccccc34)C(=O)NC2=O)c2ccccc21 | nM | 240 |
| Cn1cc(C2=C(c3cn(C4CCOC4)c4ccccc34)C(=O)NC2=O)c2ccccc21 (stereo not shown) | nM | 5 |
| Cn1cc(C2=C(c3cn(C4CCN(Cc5ccccc5)CC4)c4ccccc34)C(=O)NC2=O)c2ccccc21 | nM | 50 |
